Target: CRF receptor (Rattus norvegicus, UniProt P35353)
Construct: 100 μl of membrane suspension as prepared above to give a total reaction volume of 300 μl; from tissue; host or cells: rat cerebral cortex membrane homogenate
Sequence (P35353 24-415): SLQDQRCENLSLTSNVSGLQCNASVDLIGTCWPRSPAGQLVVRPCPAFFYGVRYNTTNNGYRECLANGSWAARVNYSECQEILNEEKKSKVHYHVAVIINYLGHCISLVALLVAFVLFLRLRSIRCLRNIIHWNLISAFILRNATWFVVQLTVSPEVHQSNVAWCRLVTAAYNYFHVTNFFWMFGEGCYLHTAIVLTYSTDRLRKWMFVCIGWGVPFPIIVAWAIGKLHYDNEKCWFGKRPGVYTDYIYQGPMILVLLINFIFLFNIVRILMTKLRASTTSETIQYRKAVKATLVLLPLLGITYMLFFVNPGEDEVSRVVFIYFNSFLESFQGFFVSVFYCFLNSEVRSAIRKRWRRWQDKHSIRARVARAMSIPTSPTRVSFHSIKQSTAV
Assay: In vitro CRF receptor binding assay (competition with [125I] ovine CRF, rat cortex membranes)
Details: read-out: Inhibition Ki
// values below are reported Ki

{"compound": "CCN(c1nc(C)nc(C(C#N)c2ccccc2)n1)c1c(Br)cc(OC)cc1OC (stereo not drawn)", "Ki": "< 500 nM"}
{"compound": "CCN(c1cc(OC)nc(OC)n1)c1ccc(C(C)C)cc1Br", "Ki": "501 to 2000 nM"}
{"compound": "Cc1cc(C)c2ccn(-c3ccc(C(C)C)cc3Br)c2n1", "Ki": "< 500 nM"}
{"compound": "Cc1cc(-c2ccccc2)c2c(C#N)cn(-c3ccc(C(C)C)cc3Br)c2n1", "Ki": "< 500 nM"}
{"compound": "CCN(c1nc(C)cc(COc2ccccc2)n1)c1ccc(C(C)C)cc1Br", "Ki": "< 500 nM"}
{"compound": "CCN(c1nc(C)cc(C(=O)N2CCN(c3ncccn3)CC2)n1)c1ccc(C(C)C)cc1Br", "Ki": "501 to 2000 nM"}
{"compound": "CCN(c1nc(C)cc(COCc2ccncc2)n1)c1ccc(C(C)C)cc1Br", "Ki": "< 500 nM"}
{"compound": "CCN(c1nc(C)cc(C(O)(c2ccccc2)c2ccccc2)n1)c1ccc(C(C)C)cc1Br", "Ki": "< 500 nM"}
{"compound": "CCN(c1nccc(C)n1)c1ccc(C(C)C)cc1Br", "Ki": "2000 to 10000 nM"}

###

Biological target: CRF receptor (Rattus norvegicus, UniProt P35353)
Construct: 100 μl of membrane suspension as prepared above to give a total reaction volume of 300 μl; from tissue; host or cells: rat cerebral cortex membrane homogenate
Experiment: In vitro CRF receptor binding assay (competition with [125I] ovine CRF, rat cortex membranes)
Conditions: read-out: Inhibition Ki
// values below are reported Ki

{"compound": "CCN(c1nc(C)cc(COc2ccc(OC)cc2)n1)c1ccc(C(C)C)cc1Br [compound 208]", "Ki": "< 500 nM"}
{"compound": "CCN(c1nc(C)cc(C)n1)c1ccc(OC)cc1SC [compound 185]", "Ki": "< 500 nM"}
{"compound": "CCN(c1nc(C)cc(COCCN2CCOCC2)n1)c1ccc(C(C)C)cc1Br [compound 231]", "Ki": "2000 to 10000 nM"}
{"compound": "CCN(c1nc(C)cc(Cl)n1)c1ccc(C(C)C)cc1I [compound 167]", "Ki": "< 500 nM"}
{"compound": "CCN(c1nc(C)cc(C(=O)c2ccco2)n1)c1ccc(C(C)C)cc1Br [compound 288]", "Ki": "< 500 nM"}
{"compound": "CCN(c1nc(C)cc(C(=O)N2CCCCC2)n1)c1ccc(C(C)C)cc1Br [compound 60]", "Ki": "501 to 2000 nM"}
{"compound": "CCN(c1nc(C)cc(C(=O)c2cc[nH]n2)n1)c1ccc(C(C)C)cc1Br [compound 286]", "Ki": "< 500 nM"}
{"compound": "CCN(c1nc(C)cc(C)n1)c1ccc(CCO)cc1Br [compound 64]", "Ki": "2000 to 10000 nM"}
{"compound": "CCc1ccc(N(CC)c2nc(C)cc(C)n2)c(SC)c1 [compound 182]", "Ki": "< 500 nM"}
